assay: Dissociation constant, pKa of the compound; format: physicochemical
PROPERTY: pKa

# COMPOUND, pKa
data = [
    ("N=C(N)Sc1c[nH]c2ccccc12", 9.5),
    ("OC(CC1c2ccccc2-c2cncn21)C1CCCCC1 (centres undefined)", 6.7),
]

====

biological target: Indoleamine 2,3-dioxygenase 1 (Homo sapiens, UniProt P14902); test: Binding affinity to NT647 dye labeled recombinant human IDO1 (1 to 403 residues) by microscale thermophoresis method
Sequence (P14902 whole entry, the tested form may be a part): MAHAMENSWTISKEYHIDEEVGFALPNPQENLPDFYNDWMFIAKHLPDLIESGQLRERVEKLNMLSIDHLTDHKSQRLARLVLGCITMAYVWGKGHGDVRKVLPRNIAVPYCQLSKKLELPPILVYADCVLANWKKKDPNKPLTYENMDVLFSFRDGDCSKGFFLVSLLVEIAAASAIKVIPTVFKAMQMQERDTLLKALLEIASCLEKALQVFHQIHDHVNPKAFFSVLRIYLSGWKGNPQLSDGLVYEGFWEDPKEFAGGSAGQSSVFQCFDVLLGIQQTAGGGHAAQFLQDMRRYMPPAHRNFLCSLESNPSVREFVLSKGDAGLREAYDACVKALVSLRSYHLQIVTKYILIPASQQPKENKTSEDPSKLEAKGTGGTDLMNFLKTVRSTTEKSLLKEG
pKd: −log10 of the molar value.
Documented pKd across a set of molecules

Use the examples below as a reference point.
# MOLECULE, TARGET_OR_SYSTEM, PROPERTY, VALUE_MEASURED
data = [
    ("NCC(O)COCC1COc2ccccc2O1 (stereo not given)", "Indoleamine 2,3-dioxygenase 1 (Homo sapiens, UniProt P14902)", "pKd", "< 3.00"),
    ("COc1ccc(-c2cnc(CN)[nH]2)cc1", "Indoleamine 2,3-dioxygenase 1 (Homo sapiens, UniProt P14902)", "pKd", "< 3.30"),
    ("COc1ccccc1OCC(O)CNC1CCCC1 (stereo not given)", "Indoleamine 2,3-dioxygenase 1 (Homo sapiens, UniProt P14902)", "pKd", "< 3.00"),
    ("NC(=O)CN1CCN(c2cccc3ccccc23)C(=O)C1=O", "Indoleamine 2,3-dioxygenase 1 (Homo sapiens, UniProt P14902)", "pKd", "< 3.00"),
    ("O=C(/C=C/N1CCOCC1)c1coc2ccccc12", "Indoleamine 2,3-dioxygenase 1 (Homo sapiens, UniProt P14902)", "pKd", 3.83),
    ("Cc1ccc(NCCNC(=O)c2c[nH]c3ccccc23)nn1", "Indoleamine 2,3-dioxygenase 1 (Homo sapiens, UniProt P14902)", "pKd", "< 3.00"),
]

Incoming: Param item = NCC(O)c1cccc2ccccc12 (stereo not given) ; retrieve measured pKd.
Outgoing: < 3.00

Incoming: Param item = NCC(O)c1cc(Cl)cc(Cl)c1 (stereo not given) ; retrieve measured pKd.
Outgoing: < 3.00

Incoming: Param item = Cn1cc(C(O)CN)c2ccccc21 (stereo not given) ; retrieve measured pKd.
Outgoing: 4.01

Incoming: Param item = `Cc1ccc(NCCNC(=O)c2cccc(Cl)c2)nn1` ; retrieve measured pKd.
Outgoing: < 3.00
